Reference source for all entries: the supplement of paper PMC10307832

# Test system: NCI-H460
# procedure_text: relative viability (nuclei count vs DMSO), 5 days (fraction); higher = more cells survive
# assay_context: first compound 0.5 µM

molecule: CC1(C)CCC(c2ccc(Cl)cc2)=C(CN2CCN(c3ccc(C(=O)NS(=O)(=O)c4ccc(N[C@H](CCN5CCOCC5)CSc5ccccc5)c(S(=O)(=O)C(F)(F)F)c4)cc3)CC2)C1 [Navitoclax] + C[C@]1(O)C[C@@H](c2nc(-c3ccc4ccc(-c5ccccc5)nc4c3)c3c(N)nccn32)C1 [Linsitinib] (partner 1 µM)
relative viability: 0.744

molecule: CC1(C)CCC(c2ccc(Cl)cc2)=C(CN2CCN(c3ccc(C(=O)NS(=O)(=O)c4ccc(N[C@H](CCN5CCOCC5)CSc5ccccc5)c(S(=O)(=O)C(F)(F)F)c4)cc3)CC2)C1 [Navitoclax] + Cc1nc(NC(=O)N2CCC[C@H]2C(N)=O)sc1-c1ccnc(C(C)(C)C(F)(F)F)c1 [Alpelisib] (partner 2 µM)
relative viability: 0.46
